Assay: Selectivity index, ratio of IC50 for mouse RAW264.7 cells to IC50 for Trypanosoma brucei brucei Lister 427
Type: toxicity
Conditions: read-out: Ratio IC50
selectivity ratio values by entry
quantityKind: selectivity ratio

>  <smilesCode>
Cc1cc(NC(=O)c2cc(C(F)(F)F)cc(C(F)(F)F)c2)ccc1NS(C)(=O)=O

>  <quantityKind>
selectivity ratio

>  <result>
> 85

$$$$
>  <smilesCode>
CCS(=O)(=O)Nc1ccc(NC(=O)c2cccc(C(F)(F)F)c2)cc1OC

>  <quantityKind>
selectivity ratio

>  <result>
2

$$$$
>  <smilesCode>
CCS(=O)(=O)Nc1ccc(NC(=O)c2cccc(C(F)(F)F)c2)cc1C

>  <quantityKind>
selectivity ratio

>  <result>
3

$$$$
>  <smilesCode>
CS(=O)(=O)Nc1ccc(NC(=O)c2ccc(Cl)cc2)cc1Cl

>  <quantityKind>
selectivity ratio

>  <result>
< 2

$$$$
>  <smilesCode>
CCS(=O)(=O)Nc1ccc(NC(=O)c2ccc(Cl)cc2)cc1Cl

>  <quantityKind>
selectivity ratio

>  <result>
> 13

$$$$
>  <smilesCode>
O=C(Nc1ccc(NS(=O)(=O)C(F)(F)F)c(F)c1)c1ccc(Cl)c([N+](=O)[O-])c1

>  <quantityKind>
selectivity ratio

>  <result>
11

$$$$
>  <smilesCode>
O=C(Nc1ccc(NS(=O)(=O)C(F)(F)F)c(Cl)c1)c1ccc(Cl)cc1

>  <quantityKind>
selectivity ratio

>  <result>
< 1

$$$$
>  <smilesCode>
CCS(=O)(=O)Nc1ccc(NC(=O)c2cccc(C(F)(F)F)c2)cc1F

>  <quantityKind>
selectivity ratio

>  <result>
4

$$$$
>  <smilesCode>
Cc1cc(NC(=O)c2ccc(Cl)c([N+](=O)[O-])c2)ccc1NS(=O)(=O)C(F)(F)F

>  <quantityKind>
selectivity ratio

>  <result>
< 2

$$$$
>  <smilesCode>
CCS(=O)(=O)Nc1ccc(NC(=O)c2ccc(Cl)c([N+](=O)[O-])c2)cc1F

>  <quantityKind>
selectivity ratio

>  <result>
24

$$$$
>  <smilesCode>
O=C(Nc1ccc(NS(=O)(=O)C(F)(F)F)c(F)c1)c1ccc(Cl)cc1

>  <quantityKind>
selectivity ratio

>  <result>
< 1

$$$$
>  <smilesCode>
CCS(=O)(=O)Nc1ccc(NC(=O)c2cc(C(F)(F)F)cc(C(F)(F)F)c2)cc1C

>  <quantityKind>
selectivity ratio

>  <result>
10

$$$$
>  <smilesCode>
Cc1cc(NC(=O)c2cc(C(F)(F)F)cc(C(F)(F)F)c2)ccc1NS(=O)(=O)C(F)(F)F

>  <quantityKind>
selectivity ratio

>  <result>
2

$$$$
>  <smilesCode>
Cc1cc(NC(=O)c2ccc(Cl)c([N+](=O)[O-])c2)ccc1NS(C)(=O)=O

>  <quantityKind>
selectivity ratio

>  <result>
14

$$$$
>  <smilesCode>
Cc1cc(NC(=O)c2cccc(C(F)(F)F)c2)ccc1NS(C)(=O)=O

>  <quantityKind>
selectivity ratio

>  <result>
7

$$$$
>  <smilesCode>
COc1cc(NC(=O)c2ccc(Cl)c([N+](=O)[O-])c2)ccc1NS(=O)(=O)C(F)(F)F

>  <quantityKind>
selectivity ratio

>  <result>
> 18

$$$$
>  <smilesCode>
CCS(=O)(=O)Nc1ccc(NC(=O)c2ccc(C#N)cc2)cc1OC

>  <quantityKind>
selectivity ratio

>  <result>
< 2

$$$$
>  <smilesCode>
COc1cc(NC(=O)c2ccc(Cl)cc2)ccc1NS(=O)(=O)C(F)(F)F

>  <quantityKind>
selectivity ratio

>  <result>
2

$$$$
>  <smilesCode>
CCS(=O)(=O)Nc1ccc(NC(=O)c2ccc(Cl)cc2)cc1C

>  <quantityKind>
selectivity ratio

>  <result>
< 2

$$$$
>  <smilesCode>
CCS(=O)(=O)Nc1ccc(NC(=O)c2ccc(Cl)c([N+](=O)[O-])c2)cc1OC

>  <quantityKind>
selectivity ratio

>  <result>
< 1

$$$$
